biological target: Na^+,K^+ -ATPase (Canis lupus familiaris, UniProt P50997); construct: from tissue; the cited Jorgensen 1974 method uses outer medulla of mammalian kidney (own knowledge); experiment: displacement of the specific ^3H-ouabain binding from the purified Na^+,K^+-ATPase receptor
pIC50: −log10 of the molar value.
If the reported pIC50 equals or exceeds 7, assign satisfied. If not, assign not satisfied.

Consider the following illustrative entries.
smiles_str	group
CC[C@H](C/C=N/OCCN(C)C)[C@@]1(C)CC[C@H]2[C@@H](CC[C@@H]3C[C@@H](O)CC[C@@]32C)C1=O	not satisfied
CC[C@@H](C/C=N/OCCN)[C@@]1(C)CC[C@H]2[C@@H](CC[C@@H]3C[C@@H](O)CC[C@@]32C)C1=O	satisfied

### Prompt Hello, I need to know if CC[C@@H](C/C=N/OCCN(C)C)[C@@]1(C)CC[C@H]2[C@@H](CC[C@H]3C[C@@H](O)CC[C@@]32C)C1=O has measured pIC50 not below 7. Thanks!
### Response not satisfied
